Ref: PubChem BioAssay

Hi there, I'd appreciate the recorded RAM network inhibition for every entry that follows.
- test-method-notes: RAM signaling pathway blockade in yeast – S. cerevisiae, Pdr1DBD-CYC8 efflux-inhibited sensitized strain, primary screen (AID 1298);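 also: 0% = DMSO untreated cells without growth and 100% = 10 µM 1-NA-PP1 full growth; higher means more yeast growth rescued from 5-FOA killing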
- experimental-context: S. cerevisiae cbk1-as DSE1-URA3 strain, 5-FOA growth OD615, 2 d; at 50 µM; active compounds read high
The reply should be a number in %, with the unit left off.

Field RAM network inhibition (entry `CCO/C(C)=C1\C(=O)N(CC)c2ccccc21` ) reads 2.08

The compound listed as `CC(=O)c1sc2ccccc2c1OC(=O)c1ccco1` shows RAM network inhibition equal to 1.97

Value of RAM network inhibition reported for the compound `O=C(Nc1nnc(C2CC2)o1)c1ccc(S(=O)(=O)N2CCCc3ccccc32)cc1` is -0.41

Memo: `COC(=O)c1coc(-c2ccc(C)cc2)c1C(=O)OC` , reported RAM network inhibition: 3.96

Value of RAM network inhibition reported for the compound COc1ccc(C2CCCN2C(=O)Nc2ccc(F)cc2)cc1OC (stereo unspecified) is 3.45

Note to self: RAM network inhibition recorded for `COc1cccc(-c2nn(C)c3sc(C(=O)NCc4ccc5c(c4)OCO5)cc23)c1` was 12.7
